# measurement.target: T1, TNFR1 (Homo sapiens, UniProt P19438)
# T1 chain: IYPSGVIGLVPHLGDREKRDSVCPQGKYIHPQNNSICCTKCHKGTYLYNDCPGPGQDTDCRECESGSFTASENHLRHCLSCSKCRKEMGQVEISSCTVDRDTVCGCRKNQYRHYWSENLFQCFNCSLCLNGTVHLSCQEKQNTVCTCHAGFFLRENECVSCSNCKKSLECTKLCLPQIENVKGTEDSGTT
# protocol.summary: yeast display SC50
reported.property: apparent Kd (screen) (pM)

{"binder": "S80L (designed binder) SMEEEVEKAAKEYEKKKKEAIEKHLEKLKAKDKEAAERFLKELEEAAKEYAKDEAKTMSEEEAKRRAKKYKEKVLLSELLEEEQKEIKEAEEKLVRTILKYVEEAAK", "apparent Kd (screen) (pM)": 539}
{"binder": "T97Y (designed binder) SMEEEVEKAAKEYEKKKKEAIEKHLEKLKAKDKEAAERFLKELEEAAKEYAKDEAKTMSEEEAKRRAKKYKEKVLLSELSEEEQKEIKEAEEKLVRYILKYVEEAAK", "apparent Kd (screen) (pM)": 539}
{"binder": "E104H (designed binder) SMEEEVEKAAKEYEKKKKEAIEKHLEKLKAKDKEAAERFLKELEEAAKEYAKDEAKTMSEEEAKRRAKKYKEKVLLSELSEEEQKEIKEAEEKLVRTILKYVEHAAK", "apparent Kd (screen) (pM)": 446}
{"binder": "A30Y (designed binder) SMEEEVEKAAKEYEKKKKEAIEKHLEKLKYKDKEAAERFLKELEEAAKEYAKDEAKTMSEEEAKRRAKKYKEKVLLSELSEEEQKEIKEAEEKLVRTILKYVEEAAK", "apparent Kd (screen) (pM)": 446}
{"binder": "A30W (designed binder) SMEEEVEKAAKEYEKKKKEAIEKHLEKLKWKDKEAAERFLKELEEAAKEYAKDEAKTMSEEEAKRRAKKYKEKVLLSELSEEEQKEIKEAEEKLVRTILKYVEEAAK", "apparent Kd (screen) (pM)": 593}
{"binder": "V74L (designed binder) SMEEEVEKAAKEYEKKKKEAIEKHLEKLKAKDKEAAERFLKELEEAAKEYAKDEAKTMSEEEAKRRAKKYKEKLLLSELSEEEQKEIKEAEEKLVRTILKYVEEAAK", "apparent Kd (screen) (pM)": 490}

(A) K29W (designed binder) SMEEEVEKAAKEYEKKKKEAIEKHLEKLWAKDKEAAERFLKELEEAAKEYAKDEAKTMSEEEAKRRAKKYKEKVLLSELSEEEQKEIKEAEEKLVRTILKYVEEAAK
(B) T57V (designed binder) SMEEEVEKAAKEYEKKKKEAIEKHLEKLKAKDKEAAERFLKELEEAAKEYAKDEAKVMSEEEAKRRAKKYKEKVLLSELSEEEQKEIKEAEEKLVRTILKYVEEAAK
Lab note: record which item had the higher apparent Kd (screen), A or B . Reply with the label of the item you choose.
A
